System: Amaranthus retoflexus (AMARE)
Experiment: Post-emergence herbicidal glasshouse test
Format: in vivo
Settings: 250 g/ha, sprayed after 8 days cultivation, evaluated after 13 days
QUANTITY: percentage damage caused to the plant, AMARE

Worked examples follow.
COMPOUND	ASSAYED_TARGET	ASSAY_RESULT
FC(F)(F)CCCc1nc(Cl)c(Cl)n1Cc1ncc(Cl)cn1	Amaranthus retoflexus (AMARE)	4 (4=61-80%)
CCCCc1nc(I)c(I)n1Cc1ncc(Cl)cn1	Amaranthus retoflexus (AMARE)	2 (2=21-40%)
CCCCc1nc(C(F)F)cn1Cc1ncc(Cl)cc1F	Amaranthus retoflexus (AMARE)	3 (3=41-60%)
CCCCc1nc(C(F)(F)F)cn1Cc1ncc(Cl)cc1F	Amaranthus retoflexus (AMARE)	4 (4=61-80%)

Problem: So what does the record say about percentage damage caused to the plant, AMARE for N#Cc1cn(Cc2ncc(Cl)cn2)c(CC2CCOC2)n1 (centres unmarked) ?
Result: 2 (2=21-40%)

Problem: Endpoint output: percentage damage caused to the plant, AMARE of C=CCCc1nc(C(F)(F)F)cn1Cc1ncc(Cl)cn1 . Value?
Result: 3 (3=41-60%)

Problem: Entry CCOCc1nc(C(F)(F)F)cn1Cc1ncc(Cl)cn1 has what percentage damage caused to the plant, AMARE?
Result: 2 (2=21-40%)

Problem: Can you share its percentage damage caused to the plant, AMARE? I mean this compound: N#CCCc1nc(C(F)(F)F)cn1Cc1ncc(Cl)cn1
Result: 4 (4=61-80%)
